assay_target: BJ6PAD-N (Bacillus subtilis, UniProt O07006)
assay_overview: Isothermal titration calorimetry of enzyme-substrate interaction, BJ6PAD-N
Type: binding, Bacillus subtilis J6
recorded_conditions: ITC, 37 °C
recorded_endpoint: Kd (µM)

a. COc1cc(/C=C/C(=O)O)cc(OC)c1O
b. COc1cc(/C=C/C(=O)O)ccc1O
Req: Parameter metric = Kd. Return the lower-valued option from a and b . Respond with the label that goes with your answer.
Resp: a
(a: 7.02 µM, b: 59.4 µM)

---

assay_target: BJ6PAD (Bacillus subtilis, UniProt O07006)
assay_overview: Isothermal titration calorimetry of enzyme-substrate interaction, BJ6PAD
Assay type: binding, Bacillus subtilis J6
recorded_conditions: ITC, 37 °C
recorded_endpoint: ΔH (kJ/mol)

COc1cc(/C=C/C(=O)O)cc(OC)c1O [sinapic acid]
-42.87

P. COc1cc(/C=C/C(=O)O)ccc1O [ferulic acid]
Q. O=C(O)/C=C/c1ccc(O)c(O)c1 [caffeic acid]
R. O=C(O)/C=C/c1ccc(O)cc1 [p-coumaric acid]
Req: Order the entries by their reported ΔH, beginning at the minimum. // list labels; follow requested order
Resp: R, Q, P
(R: -61.55 kJ/mol, Q: -35.33 kJ/mol, P: -21.48 kJ/mol)

---

Specific enzyme activity values, listed per item
assay_target: UniProt O07006
assay_overview: Specific enzyme activity towards phenolic acid substrates, BJ6PAD
Format: biochemical, Bacillus subtilis J6
recorded_conditions: 37 ℃, pH 6.0; pCA, FA, CafA 10 mmol/L, SA 6 mmol/L
Marks after values point to notes of the source that are not given here.

O=C(O)/C=C/c1ccc(O)c(O)c1
92.34 ± 0.57^b IU/mg

Summary: `COc1cc(/C=C/C(=O)O)ccc1O` , UniProt O07006, Specific enzyme activity = 150.85 ± 2.15^b IU/mg

Summary: `COc1cc(/C=C/C(=O)O)cc(OC)c1O` , UniProt O07006, Specific enzyme activity = 17.37 ± 0.64^b IU/mg

Summary: `O=C(O)/C=C/c1ccc(O)cc1` , UniProt O07006, Specific enzyme activity = 209.82 ± 1.41^b IU/mg

---

assay_target: BJ6PAD-N (Bacillus subtilis, UniProt O07006)
assay_overview: Isothermal titration calorimetry of enzyme-substrate interaction, BJ6PAD-N
Format: binding, Bacillus subtilis J6
pKd: −log10 of the molar value.
recorded_endpoint: pKd

P. O=C(O)/C=C/c1ccc(O)c(O)c1
Q. O=C(O)/C=C/c1ccc(O)cc1
Req: Field: entry with larger pKd (options P / Q ). Respond with the label that goes with your answer.
Resp: P
(P: 5.15, Q: 4.79)

---

assay_target: BJ6PAD (Bacillus subtilis, UniProt O07006)
assay_overview: Isothermal titration calorimetry of enzyme-substrate interaction, BJ6PAD
Assay type: binding, Bacillus subtilis J6
recorded_conditions: ITC, 37 °C
recorded_endpoint: ΔG (kcal/mol)

O=C(O)/C=C/c1ccc(O)cc1
-6.917
COc1cc(/C=C/C(=O)O)cc(OC)c1O
-6.678
O=C(O)/C=C/c1ccc(O)c(O)c1
-7.622
COc1cc(/C=C/C(=O)O)ccc1O
-8.384

---

assay_target: UniProt:O07006
assay_overview: Isothermal titration calorimetry of enzyme-substrate interaction, BJ6PAD
Format: binding, Bacillus subtilis J6
pKd: −log10 of the molar value.
recorded_endpoint: pKd

1. O=C(O)/C=C/c1ccc(O)c(O)c1 [caffeic acid]
2. O=C(O)/C=C/c1ccc(O)cc1 [p-coumaric acid]
Req: Parameter metric = pKd. Return the lower-valued option from 1 and 2 . Respond with the label that goes with your answer.
Resp: 2
(2: 4.89, 1: 5.37)
